This collection of values is drawn from PubChem BioAssay AID2060617.

- Tested on: 485368-065-R4-J2-PDC spheroids with HUVEC/MSC, viability;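 note: spheroids exposed to compounds for seven days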
- assay.overview: Anticancer human tumor 485368-065-R4-J2-PDC patient-derived pancreatic carcinoma cell line growth inhibition [CLK]
- test.conditions: second compound 1 µM; first compound 0.00316 µM; hits give low values
Lab note: compare viability, T/C with 2%, writing rule met if less and rule not met if equal or more.

- compound: "COc1c(OCCCN2CCOCC2)ccc2c3n(c(=NC(=O)c4cnc(N)nc4)nc12)CCN3 + CNC(=O)c1ccc(Nc2nc(OC3CCCC3)c3c(-c4ccc5nc(C)oc5c4)c[nH]c3n2)c(OC)c1"
  class.label: "rule not met"
- compound: "COc1c(OCCCN2CCOCC2)ccc2c3n(c(=NC(=O)c4cnc(N)nc4)nc12)CCN3 + CN1CCN(c2cc(C(=O)Nc3cc4cc(-c5cnn(C)c5)ccc4cn3)ccn2)CC1"
  class.label: "rule not met"
- compound: "Cn1ncnc1[C@H]1c2n[nH]c(=O)c3cc(F)cc(c23)N[C@@H]1c1ccc(F)cc1 + CN1CCN(c2cc(C(=O)Nc3cc4cc(-c5cnn(C)c5)ccc4cn3)ccn2)CC1"
  class.label: "rule met"
- compound: "CCc1c2c(nc3ccc(O)cc13)-c1cc3c(c(=O)n1C2)COC(=O)[C@]3(O)CC + CN1CCN(c2cc(C(=O)Nc3cc4cc(-c5cnn(C)c5)ccc4cn3)ccn2)CC1"
  class.label: "rule not met"
- compound: "CCN1CCN(Cc2ccc(Nc3ncc(F)c(-c4cc(F)c5nc(C)n(C(C)C)c5c4)n3)nc2)CC1 + CNC(=O)c1ccc(Nc2nc(OC3CCCC3)c3c(-c4ccc5nc(C)oc5c4)c[nH]c3n2)c(OC)c1"
  class.label: "rule not met"
